Origin of measurements: PubChem BioAssay AID1053170

- Target of assay: E3 ubiquitin-protein ligase UHRF1 (Homo sapiens) (UniProt Q96T88)
- Sequence (Q96T88 whole entry, looked up): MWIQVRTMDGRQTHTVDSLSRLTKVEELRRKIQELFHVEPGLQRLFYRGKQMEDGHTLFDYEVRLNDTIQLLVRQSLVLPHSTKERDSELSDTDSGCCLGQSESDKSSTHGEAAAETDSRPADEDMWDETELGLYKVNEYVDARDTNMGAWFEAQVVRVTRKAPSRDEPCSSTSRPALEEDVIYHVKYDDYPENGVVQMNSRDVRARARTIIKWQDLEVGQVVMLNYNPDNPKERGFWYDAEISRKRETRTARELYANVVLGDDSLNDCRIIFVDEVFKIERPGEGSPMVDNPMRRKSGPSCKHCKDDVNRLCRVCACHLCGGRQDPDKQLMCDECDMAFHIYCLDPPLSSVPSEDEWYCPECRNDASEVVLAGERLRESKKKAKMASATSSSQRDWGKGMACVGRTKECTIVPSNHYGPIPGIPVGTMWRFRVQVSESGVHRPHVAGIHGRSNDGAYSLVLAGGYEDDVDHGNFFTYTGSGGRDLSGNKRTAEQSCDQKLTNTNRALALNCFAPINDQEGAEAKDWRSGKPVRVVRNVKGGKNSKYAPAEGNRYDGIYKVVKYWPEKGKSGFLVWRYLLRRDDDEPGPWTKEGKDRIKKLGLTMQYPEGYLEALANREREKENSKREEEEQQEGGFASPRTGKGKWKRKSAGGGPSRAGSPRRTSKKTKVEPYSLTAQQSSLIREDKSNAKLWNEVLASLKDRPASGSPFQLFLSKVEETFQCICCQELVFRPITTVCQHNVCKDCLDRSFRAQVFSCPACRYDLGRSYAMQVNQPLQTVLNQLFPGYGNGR
- Assay: blockers of UHRF1 binding to methyl-oligo – biochemical, TR-FRET, human UHRF1, dose response, counter-screen for MBD2 inhibitor project, late-stage follow-up (AID 1053170)
- Recorded conditions: TR-FRET UHRF1-methylated DNA binding
Activity calls are given as the source filed them. The rule behind the calls is not given here.
Endpoint: IC50

The examples below pair each entry with its known result.
- Compound: "O=C(CSc1ccccn1)Nc1ccc(N2CCOCC2)cc1"
  IC50: "> 43.8 µM (inactive)"
- Compound: "CCOC(=O)c1oc2ccc(CNC(C)(C)C)c(Cl)c2c1C"
  IC50: "> 43.8 µM (inactive)"
- Compound: "COc1ccccc1C(=O)COC(=O)c1ccc(N(C)C)cc1"
  IC50: "> 43.8 µM (inactive)"
- Compound: "CSc1ccc(OC2CCCCC2NS(=O)(=O)c2ccccc2)cc1 (centres undefined)"
  IC50: "> 43.8 µM (inactive)"
- Compound: "COc1cccc2nc3c(C(=O)NCCN(C)C)cccc3cc12"
  IC50: "> 43.8 µM (inactive)"

// next item, IC50 requested
Recorded IC50 (compound COc1ccc(C(=O)NCCN(C)C)c2nc3ccccc3cc12 ): inactive

----------
- Target of assay: E3 ubiquitin-protein ligase UHRF1 (Homo sapiens)
- Assay: blockers of UHRF1 binding to methyl-oligo – biochemical, TR-FRET, human UHRF1, dose response, counter-screen for MBD2 inhibitor project, late-stage follow-up (AID 1053170)
- Recorded conditions: TR-FRET UHRF1-methylated DNA binding
Calls of active or inactive are those of the source. The rule behind the calls is not given here.
Endpoint: IC50

- Compound: "Cc1ccc(NCCN(C)C)c2c(=O)c3cc(O)ccc3sc12"
  IC50: "inactive"
- Compound: "CCc1cccc(OCC(=O)Nc2ccc(S(=O)(=O)Nc3ccccn3)cc2)c1"
  IC50: "> 43.8 µM (inactive)"
- Compound: "Cc1c2cnn(CC(=O)Nc3c(F)c(F)cc(F)c3F)c(=O)c2c(C)n1Cc1ccccc1F"
  IC50: "inactive"
- Compound: "CC(C)n1nc(C(=O)Nc2nc3ccccc3[nH]2)c2ccccc2c1=O"
  IC50: "> 43.8 µM (inactive)"
- Compound: "COc1ccc(NC(=O)Cn2cc(C(C)=O)c3ccccc32)cc1"
  IC50: "> 43.8 µM (inactive)"
- Compound: "Cc1ccc(Cl)cc1N1CCN(S(=O)(=O)c2ccc3c(c2)NC(=O)C(C)C(=O)N3)CC1 (stereo not drawn)"
  IC50: "> 43.8 µM (inactive)"

Now, please, on to the next compound.
Noted for CN(C)CCNc1ccc(CO)c2sc3ccc(O)cc3c(=O)c12 : its IC50 reads > 43.8 µM (inactive)

----------
- Target of assay: E3 ubiquitin-protein ligase UHRF1 (Homo sapiens) (UniProt Q96T88)
- Assay: blockers of UHRF1 binding to methyl-oligo – biochemical, TR-FRET, human UHRF1, dose response, counter-screen for MBD2 inhibitor project, late-stage follow-up (AID 1053170)
- Recorded conditions: TR-FRET UHRF1-methylated DNA binding
Activity calls are given as the source filed them. How the calls were made is not given here.
# IC50 per entry

- Compound: "CSc1ccc(OC2CCCCC2NS(=O)(=O)c2ccc(Cl)cc2)cc1 (stereo not drawn)"
  IC50: "> 43.8 µM (inactive)"

// below: IC50 requested for another compound
Noted for CC(=O)N(c1ccccc1)c1nc(/C=C/C(=O)Nc2c(C)cc(C)cc2C)cs1 : its IC50 reads > 43.8 µM (inactive)
